PROTOCOL_DESCRIPTION: Plasma concentration in mouse at 200 mg/kg, po bid for 14 days measured after 1 hr
Type: ADME, organism-based
MEASUREMENT_KIND: concentration at 1 h (µM)
Number only, in µM; omit the unit.

Q. Consider the molecule CCCCN1CCC(N(Cc2ccccc2)C(=O)Nc2ccc(Cl)c(Cl)c2)CC1 and give its measured concentration at 1 h.
A. 3.3

---

UniProt:Q96GG9 pIC50 data
Sequence (Q96GG9 whole entry): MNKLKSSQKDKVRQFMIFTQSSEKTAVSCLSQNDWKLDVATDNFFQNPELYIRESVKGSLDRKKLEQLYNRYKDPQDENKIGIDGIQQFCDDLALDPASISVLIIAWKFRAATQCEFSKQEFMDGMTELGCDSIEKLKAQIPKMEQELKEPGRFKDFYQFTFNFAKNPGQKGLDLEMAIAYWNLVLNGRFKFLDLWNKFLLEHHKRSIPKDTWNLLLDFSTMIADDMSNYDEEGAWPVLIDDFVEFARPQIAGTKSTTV
pIC50: −log10 of the molar value.

Past entries and their recorded results:
Cc1ccc(CN2CCC(N(Cc3ccccc3)C(=O)Nc3cc(F)cc(C(F)(F)F)c3)CC2)o1 = < 4.62
COc1ccccc1CN1CCC(N(Cc2ccccc2)C(=O)Nc2cc(F)cc(C(F)(F)F)c2)CC1 = < 4.60
CCCC(C)N1CCC(N(Cc2ccccc2)C(=O)Nc2cc(Cl)ccc2F)CC1 (centres undefined) = < 4.47
CCCC(C)N1CCC(N(Cc2ccccc2)C(=O)Nc2ccc(F)c(C(F)(F)F)c2)CC1 (centres undefined) = 6.54

Q. Recorded pIC50 for Cn1ccnc1CN1CCC(N(Cc2ccccc2)C(=O)Nc2cc(F)cc(C(F)(F)F)c2)CC1 with UniProt:Q96GG9, please?
A. < 4.55

Q. What measured pIC50 is associated with O=C(Nc1cc(F)cc(C(F)(F)F)c1)N(Cc1ccccc1)C1CCN(Cc2cccc(Oc3ccccc3)c2)CC1 on UniProt:Q96GG9?
A. < 4.62

Q. Identify the measured pIC50 of CCCC(C)N1CCC(N(Cc2ccccc2)C(=O)Nc2cccc(C(C)C)c2)CC1 (centres undefined) for UniProt:Q96GG9.
A. 6.45

Q. Kindly state the measured pIC50 obtained for COc1cccc(CN2CCC(N(Cc3ccccc3)C(=O)Nc3cc(F)cc(C(F)(F)F)c3)CC2)c1 with UniProt:Q96GG9.
A. < 4.55

Q. For UniProt:Q96GG9, provide pIC50 of Cn1ccc2cc(CN3CCC(N(Cc4ccccc4)C(=O)Nc4cc(F)cc(C(F)(F)F)c4)CC3)ccc21 please.
A. < 4.68

---

This listing pairs compounds with measured half-life at 0.8 µM.
PROTOCOL_DESCRIPTION: Half life in mouse liver microsomes at 0.8 uM by LC-MS/MS analysis
Format: ADME, microsome
# output: bare number, implied unit min

A selection of reference data follows.
CCCC(C)N1CCC(N(Cc2ccccc2)C(=O)Nc2ccc(C)cc2)CC1 (stereo not given) = 9.6
CCCCN1CCC(N(Cc2ccccc2)C(=O)Nc2cccc(C)c2)CC1 = 10.7

Q. Tell me the measured half-life at 0.8 µM of CCCCN1CCC(N(Cc2ccccc2)C(=O)Nc2ccc(F)c(Cl)c2)CC1 , please.
A. 84

Q. half-life at 0.8 µM for CCCC(C)N1CCC(N(Cc2ccccc2)C(=O)Nc2ccc(C(C)C)cc2)CC1 (stereo not given) ?
A. 10.6

Q. Would you mind telling me what half-life at 0.8 µM value was observed for CCCC(C)N1CCC(N(Cc2ccccc2)C(=O)Nc2ccc(C(F)(F)F)cc2)CC1 (stereo not given) ?
A. 27.3

Q. # lookup: half-life at 0.8 µM of CCCN1CCC(N(Cc2ccco2)C(=O)Nc2cccc(C(F)(F)F)c2)CC1
A. 8.22

Q. What value of half-life at 0.8 µM has been reported for the following compound? CCCC(C)N1CCC(N(Cc2ccccc2)C(=O)Nc2cccc(C(C)C)c2)CC1 (stereo not given)
A. 13.4

Q. I would be grateful if you could share the reported half-life at 0.8 µM for CCCC(C)N1CCC(N(Cc2ccccc2)C(=O)Nc2cc(Cl)ccc2F)CC1 (stereo not given) .
A. 14.9

Q. What does the data say about its half-life at 0.8 µM? Entry: CCCCN1CCC(N(Cc2ccccc2)C(=O)Nc2cccc(C(F)(F)F)c2)CC1
A. 9

Q. Data request, read-out half-life at 0.8 µM, for CCCCN1CCC(N(Cc2ccccc2)C(=O)Nc2cc(F)cc(C(F)(F)F)c2)CC1
A. 146

Q. What does the data say about its half-life at 0.8 µM? Entry: CCCC(C)N1CCC(N(Cc2ccccc2)C(=O)Nc2ccc(Br)cc2)CC1 (stereo not given)
A. 23.2

Q. // lookup half-life at 0.8 µM for CCCC(C)N1CCC(N(Cc2ccccc2)C(=O)Nc2ccc(C)c(F)c2)CC1 (stereo not given)
A. 9
